All values here come from ChEMBL document CHEMBL3988442.

Molecular target: Tyrosyl-tRNA synthetase, putative (Trypanosoma cruzi (strain CL Brener))
Sequence (whole entry): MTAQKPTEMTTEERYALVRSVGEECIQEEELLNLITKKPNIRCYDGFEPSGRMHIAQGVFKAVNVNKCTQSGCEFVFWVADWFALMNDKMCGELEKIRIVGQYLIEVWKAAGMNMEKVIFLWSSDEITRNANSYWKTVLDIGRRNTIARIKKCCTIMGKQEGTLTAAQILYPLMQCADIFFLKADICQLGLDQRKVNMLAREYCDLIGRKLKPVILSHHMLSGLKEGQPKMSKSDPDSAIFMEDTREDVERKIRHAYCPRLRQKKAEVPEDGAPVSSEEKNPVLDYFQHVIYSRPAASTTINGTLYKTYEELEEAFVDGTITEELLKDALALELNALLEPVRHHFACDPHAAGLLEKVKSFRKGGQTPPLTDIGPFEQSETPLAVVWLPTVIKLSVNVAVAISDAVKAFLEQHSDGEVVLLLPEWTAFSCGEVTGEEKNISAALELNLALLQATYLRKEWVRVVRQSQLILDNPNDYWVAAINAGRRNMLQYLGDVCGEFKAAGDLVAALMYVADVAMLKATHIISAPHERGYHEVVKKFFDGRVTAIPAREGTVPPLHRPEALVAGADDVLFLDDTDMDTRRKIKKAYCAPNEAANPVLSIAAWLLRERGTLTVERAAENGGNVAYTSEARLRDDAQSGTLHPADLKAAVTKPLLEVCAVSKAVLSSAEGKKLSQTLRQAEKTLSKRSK
Assay: Trypanosoma cruzi tyrosyl tRNA synthetase (TcYRS) _High Tyrosine SOP
Format: functional
Design: scale not given: in the data most compounds retested in dose-response had high values
Details: 30 µM
measured_quantity: Percent Effect (%)

{"columns": ["compound", "unit_tag", "test_value"],
 "data": [
  ["Cc1nc(NC(=O)CNC(=O)c2c(F)cccc2Cl)n[nH]1", "%", 1.06],
  ["Cc1occc1C(=O)N1CCC2(CC1)CC(c1cccnc1)C(=O)N2C (centres undefined)", "%", 2.08],
  ["Cc1cc(CN2CC[C@H]3C[C@H](C(=O)N4CCC(C)CC4)O[C@H]3C2)no1", "%", 0],
  ["CCn1ccnc1CNCC1CCN(CC(O)c2ccccc2)CC1 (centres undefined)", "%", 3.35],
  ["CC(C)c1cc(NC(=O)CN2CCC(N3CCNC3=O)CC2)on1", "%", 5.88],
  ["COCCn1ccc(NC(=O)Nc2ccc(C(N)=O)c(F)c2)n1", "%", 0],
  ["O=C(CS(=O)(=O)c1ccccc1Cl)NC1CCCCNC1=O (centres undefined)", "%", 2.91],
  ["Cc1ncccc1NC(=O)C1=NOC2(CCN(Cc3nccs3)C2)C1 (centres undefined)", "%", 6.84],
  ["Cc1cncc(C(=O)N2Cc3ccccc3C3(CCN(C)CC3)C2)c1", "%", -2.63],
  ["Cc1nsc(C(=O)N2CCc3ccccc3C2)n1", "%", 3.17],
  ["CC(c1nc(C2CC2)no1)N1CCN(Cc2cccc(C#N)c2)CC1 (centres undefined)", "%", 3.35],
  ["O=C(CCc1cc2n(n1)CCN(Cc1ncc[nH]1)C2)N1CCCC1", "%", 4.79],
  ["CN(Cc1cccc(F)c1)C(=O)CN1CCCCC1Cn1cncn1 (centres undefined)", "%", 4.3],
  ["COc1ccc(CN2C[C@@H]3OCCN(CC4CCCO4)[C@@H]3C2)cc1 (some centres undefined)", "%", 3.24],
  ["CN(C)C[C@H]1OC[C@@H]2CCN(S(=O)(=O)c3cccs3)C[C@@H]21", "%", -0.526],
  ["CC(C)CC(=O)N1C[C@@H]2CCN(c3ncccn3)C[C@@H]2C1", "%", 0],
  ["O=C(COc1ccccc1)N1CCC[C@]2(C[C@H](OCC3CC3)CO2)C1", "%", 8.47],
  ["Cc1cccc(-c2ccc(C(=O)NCCN(C)C3CC3)c(=O)[nH]2)c1", "%", 0.493],
  ["COc1ccccc1CNC(=O)N1CCCC(c2nncn2C)C1 (centres undefined)", "%", 7.39],
  ["Cc1cc(C)n(CC(=O)N2CCC(c3nc(C)no3)CC2)n1", "%", 3.16],
  ["O=S(=O)(CCNC1CCc2ncnn2C1)c1ccccc1 (centres undefined)", "%", 1.96],
  ["CCc1nc(C)c(C(=O)N2C[C@H]3CC[C@@H]2CN(S(=O)(=O)N(C)C)C3)s1", "%", -0.546],
  ["O=C1NCc2ccc(NC(=O)C3CCCN3c3nccs3)cc21 (centres undefined)", "%", -0.478],
  ["COc1ccc(CNC(=O)NCC2CCOC2)c(C(F)(F)F)c1 (centres undefined)", "%", 5.26],
  ["CCn1ncc2c1C(COC)CN(Cc1ccc(OC)cc1)C2 (centres undefined)", "%", 2.15],
  ["COc1cc2nc(C)n(CC(=O)NCCCN(C)C)c(=O)c2cc1OC", "%", 6.35],
  ["CCC(C)NC(=O)c1ccccc1-n1cnnn1 (centres undefined)", "%", 9.29],
  ["COCC(c1cccc(C(F)(F)F)c1)N(C)C(=O)c1cc(C)no1 (centres undefined)", "%", 1.47],
  ["COc1ncccc1NC(=O)NCC1CCS(=O)(=O)C1 (centres undefined)", "%", 5.83],
  ["COc1c(CNC(c2ccc(F)cc2)c2nccn2C)c(C)nn1C (centres undefined)", "%", 9.31],
  ["Cc1cnc(CN2CCC(N(C)Cc3nnc(C4CC4)n3C)C2)cn1 (centres undefined)", "%", 6.45],
  ["CN(C)c1cc(C(=O)N2CCN(S(C)(=O)=O)CC2)ccn1", "%", 4.31],
  ["Cn1ccnc1CN1CCN(CCOc2ccccc2C#N)CC1", "%", 7.39],
  ["CCOC(=O)N1CCN(C(=O)CCn2ccc3c(OC)cccc32)CC1", "%", 2.13],
  ["O=C(c1ccc[nH]1)N1CCCC(c2cc(C(F)(F)F)[nH]n2)C1 (centres undefined)", "%", 3.45],
  ["CC(=O)N1CC(=O)N(c2cnn(C)c2)CC12CCN(CC1CC1)C2 (centres undefined)", "%", 4.95],
  ["NC(=O)c1csc(C(=O)N2CCCC(n3ccnc3)C2)c1 (centres undefined)", "%", 4.17],
  ["O=C(CCNc1ncccn1)N1CCCC(n2ccnc2)C1 (centres undefined)", "%", 8.33],
  ["O=C(c1cc(C2CC2)[nH]n1)N1CCN(Cc2ccsc2)CC1", "%", 7.92]
]}
